Tested on: EKVX NSCLC
method: NCI-60 one-dose screen, 48 h (100 = growth as untreated, 0 = no growth, -100 = all killed)
assay-setup: 10 µM unless noted
About 83,000 compounds went through this panel and 20% of them were active in at least one assay; those are over-represented in the sample as a whole.
Mark 1 (yes) for reported growth of 50% or greater; mark 0 (no) for anything smaller.

compound=COc1ccc(C(=O)/C=C/c2ccc(Oc3nc(Nc4ccc(F)cc4)nc(N(C)C)n3)c(OC)c2)cc1 label="1 (yes)"

Enquiry: I'd appreciate it if you could say whether CC(C)CSc1nc(NCCc2c[nH]c3ccccc23)c(C#N)c(-c2ccc(Cl)cc2)n1 has growth at least equal to 50%.
Return: 0 (no)

Enquiry: Next up: O=C(Nc1ccc(C(F)(F)F)cc1)Nc1ccc2oc(=O)ccc2c1
Return: 0 (no)

Enquiry: Please give the result for CC(C)c1ccc2c(N)c(C(=O)Nc3cccc(C(F)(F)F)c3)sc2n1 too.
Return: 0 (no)

Enquiry: Record: CN(C)c1nc(NCCNS(=O)(=O)c2ccc(C(=O)/C=C/c3ccc(F)cc3)cc2)nc(Nc2ccc(F)cc2)n1
Return: 0 (no)

Enquiry: For NS(=O)(=O)c1ccc(-n2cc(-c3cccc(NC(=O)c4cc(Cl)cc(Cl)c4)c3)nn2)cc1 then?
Return: 1 (yes)
